Test system: EGF-induced tyrosine phosphorylation in A431 cells
Experiment: Inhibition of cellular tyrosine autophosphorylation (VAP assay)
Assay type: cell-based
Conditions: Homo sapiens, A-431, 10 min, read-out: VAP IC50
assay-readout: IC50 (nM)
Quick note: give the figure in nM, leave out the unit.

Request: Report IC50 from EGF-induced tyrosine phosphorylation in A431 cells testing of `COc1cc2ncnc(N[C@H](COC(C)=O)c3ccccc3)c2cc1OC`
Response: 1310

* * *

Test system: A431 cells
Assay: SRB-Antiproliferative assay (A431 assay)
Format: cell-based
Details: Homo sapiens, A-431, 72 h; A431 cells, 3 days, SRB; read-out: A431 IC50
pIC50: −log10 of the molar value.
assay-readout: pIC50

Request: Report pIC50 from A431 cells testing of COc1cc2ncnc(N[C@H](CO)c3ccccc3)c2cc1OC [FCE 29771]
Response: < 5.81
